Exercise: state measured Number of Revertants for each of the molecules provided.
test system: Salmonella typhimurium TA98 strain; conditions: concentration 100 µg/plate, TA98, no metabolic activation

Per the record, C[N+](C)(C)C1COC2C1OCC2[N+](C)(C)C (stereo not drawn) has Number of Revertants of 11.3 ± 3.5

The molecule listed as c1cc[n+](C2COC3C2OCC3[n+]2ccccc2)cc1 (stereo not drawn) shows Number of Revertants equal to 10.6 ± 2.1

The molecule CCCCCC[N+](C)(C)C1COC2C1OCC2[N+](C)(C)CCCCCC (stereo not drawn) showed Number of Revertants equal to 11.0 ± 7.5

Value of measured Number of Revertants for the entry Cn1cc[n+](C2COC3C2OCC3[n+]2ccn(C)c2)c1 (stereo not drawn) : 9.0 ± 3.6

Number of Revertants reported for this molecule CN(C)c1cc[n+](C2COC3C2OCC3[n+]2ccc(N(C)C)cc2)cc1 (stereo not drawn) : 10.0 ± 2.6

In plain terms, NC(=O)c1ccc[n+](C2COC3C2OCC3[n+]2cccc(C(N)=O)c2)c1 (stereo not drawn) has a documented Number of Revertants of 12.0 ± 2.0

###

tested on: Candida glabrata DSMZ 11226; assay: Antimicrobial activity, microdilution MIC, C. glabrata; type: cell-based; conditions: Nakaseomyces glabratus, DSMZ11226, 24 h, MIC90, 24 h, RPMI; read-out: MIC C. glabrata DSMZ 11226
What MIC was measured for each of the following?

Input Cn1cc[n+](C2COC3C2OCC3[n+]2ccn(C)c2)c1 (stereo not shown) . Output MIC: > 4000 µg/mL

Looking up NC(=O)c1ccc[n+](C2COC3C2OCC3[n+]2cccc(C(N)=O)c2)c1 (stereo not shown) , I found its MIC recorded as > 4000 µg/mL

Summary for this compound, c1cc[n+](C2COC3C2OCC3[n+]2ccccc2)cc1 (stereo not shown) : MIC is > 4000 µg/mL

Query CN(C)c1cc[n+](C2COC3C2OCC3[n+]2ccc(N(C)C)cc2)cc1 (stereo not shown) yields MIC of > 4000 µg/mL

###

tested on: Salmonella typhimurium TA98 strain; settings: concentration 2000 µg/plate, TA98, no metabolic activation
Label class 1 when Number of Revertants >= 7; otherwise class 0.

## Input Exam item: decide whether the reported Number of Revertants for C[N+](C)(C)C1COC2C1OCC2[N+](C)(C)C (stereo not drawn) [QAS 7] is at least 7.
## Output class 1

## Input Item CCCCCC[N+](C)(C)C1COC2C1OCC2[N+](C)(C)CCCCCC (stereo not drawn) [QAS 8] with Number of Revertants of 7 or above?
## Output class 1

## Input Check if Number of Revertants >= 7 (inclusive). Item: c1cc[n+](C2COC3C2OCC3[n+]2ccccc2)cc1 (stereo not drawn) [QAS 3]
## Output class 1

## Input Assess whether reported Number of Revertants for NC(=O)c1ccc[n+](C2COC3C2OCC3[n+]2cccc(C(N)=O)c2)c1 (stereo not drawn) [QAS 5] sits at 7 or higher.
## Output class 1

## Input Textbook exercise: given the entry CN(C)c1cc[n+](C2COC3C2OCC3[n+]2ccc(N(C)C)cc2)cc1 (stereo not drawn) [QAS 4] , state whether its Number of Revertants is greater than or equal to 7.
## Output class 0

## Input Form field: Number of Revertants at least 7? Entry: Cn1cc[n+](C2COC3C2OCC3[n+]2ccn(C)c2)c1 (stereo not drawn) [QAS 6]
## Output class 1

###

Would you mind telling me the reported Number of Revertants of each entry?
tested on: Salmonella typhimurium TA98 strain; details: concentration 20 µg/plate, TA98, no metabolic activation
Lab note: write the figure by itself, no unit.

Briefly, Number of Revertants measured for NC(=O)c1ccc[n+](C2COC3C2OCC3[n+]2cccc(C(N)=O)c2)c1 (stereo not drawn) : 8.0

Looking up C[N+](C)(C)C1COC2C1OCC2[N+](C)(C)C (stereo not drawn) , I found its Number of Revertants recorded as 10.7

For CN(C)c1cc[n+](C2COC3C2OCC3[n+]2ccc(N(C)C)cc2)cc1 (stereo not drawn) the molecule record lists Number of Revertants as 9.7

Recorded result, Cn1cc[n+](C2COC3C2OCC3[n+]2ccn(C)c2)c1 (stereo not drawn) , Number of Revertants: 10.0

Measured Number of Revertants of c1cc[n+](C2COC3C2OCC3[n+]2ccccc2)cc1 (stereo not drawn) : 11.0

response.value for CCCCCC[N+](C)(C)C1COC2C1OCC2[N+](C)(C)CCCCCC (stereo not drawn) (field: Number of Revertants) = 15.7

###

test system: Salmonella typhimurium TA98 strain; conditions: concentration 4 µg/plate, TA98, no metabolic activation
Assay Metric: Number of Revertants
Answer using only a numeral; do not append any unit.

Summary for this compound, NC(=O)c1ccc[n+](C2COC3C2OCC3[n+]2cccc(C(N)=O)c2)c1 (stereo not drawn) : Number of Revertants is 14.3

Kindly note the recorded Number of Revertants for CN(C)c1cc[n+](C2COC3C2OCC3[n+]2ccc(N(C)C)cc2)cc1 (stereo not drawn) , which is 8.3

Lab note: measured Number of Revertants of CCCCCC[N+](C)(C)C1COC2C1OCC2[N+](C)(C)CCCCCC (stereo not drawn) was 14.7

For c1cc[n+](C2COC3C2OCC3[n+]2ccccc2)cc1 (stereo not drawn) the compound record lists Number of Revertants as 7.3

What the record says about C[N+](C)(C)C1COC2C1OCC2[N+](C)(C)C (stereo not drawn) : Number of Revertants is 11.0

Please fill in: Number of Revertants reported for Cn1cc[n+](C2COC3C2OCC3[n+]2ccn(C)c2)c1 (stereo not drawn) = 13.3

###

test system: Candida glabrata DSMZ 11226; test: Antimicrobial activity, microdilution MIC, C. glabrata; type: cell-based; settings: MIC90, 24 h, RPMI
Assay Metric: MIC C. glabrata DSMZ 11226

In plain terms, CCCCCC[N+](C)(C)C1COC2C1OCC2[N+](C)(C)CCCCCC (stereo not drawn) has a documented MIC C. glabrata DSMZ 11226 of 2048 µg/mL

C[N+](C)(C)C1COC2C1OCC2[N+](C)(C)C (stereo not drawn) has a reported MIC C. glabrata DSMZ 11226 of >4096 µg/mL

response.value for CN(C)c1cc[n+](C2COC3C2OCC3[n+]2ccc(N(C)C)cc2)cc1 (stereo not drawn) (field: MIC C. glabrata DSMZ 11226) = >4096 µg/mL

Looking up c1cc[n+](C2COC3C2OCC3[n+]2ccccc2)cc1 (stereo not drawn) , I see its MIC C. glabrata DSMZ 11226 listed as >4096 µg/mL

Input Cn1cc[n+](C2COC3C2OCC3[n+]2ccn(C)c2)c1 (stereo not drawn) . Output MIC C. glabrata DSMZ 11226: >4096 µg/mL

NC(=O)c1ccc[n+](C2COC3C2OCC3[n+]2cccc(C(N)=O)c2)c1 (stereo not drawn) yielded MIC C. glabrata DSMZ 11226 of >4096 µg/mL

###

test system: Salmonella typhimurium TA98 strain; details: concentration 500 µg/plate, TA98, no metabolic activation
Short version: Number of Revertants at least 9 is criterion met, less is criterion not met.

## Input Check if Number of Revertants >= 9 (inclusive). Item: NC(=O)c1ccc[n+](C2COC3C2OCC3[n+]2cccc(C(N)=O)c2)c1 (stereo not drawn)
## Output criterion met

## Input Given the entry C[N+](C)(C)C1COC2C1OCC2[N+](C)(C)C (stereo not drawn) , answer whether its Number of Revertants meets or surpasses 9.
## Output criterion met

## Input Decide: Number of Revertants of c1cc[n+](C2COC3C2OCC3[n+]2ccccc2)cc1 (stereo not drawn) >= 9?
## Output criterion not met

## Input Assess whether reported Number of Revertants for Cn1cc[n+](C2COC3C2OCC3[n+]2ccn(C)c2)c1 (stereo not drawn) sits at 9 or higher.
## Output criterion met

## Input Tell me whether Number of Revertants is at least 9 here: CCCCCC[N+](C)(C)C1COC2C1OCC2[N+](C)(C)CCCCCC (stereo not drawn)
## Output criterion met

## Input Is the recorded value of Number of Revertants equal to or greater than 9 for this compound? CN(C)c1cc[n+](C2COC3C2OCC3[n+]2ccc(N(C)C)cc2)cc1 (stereo not drawn)
## Output criterion not met

###

Exercise: state measured melting point for each of the molecules provided.
Counter-ions that a name gives are not always drawn.

Data point: NC(=O)c1ccc[n+](C2COC3C2OCC3[n+]2cccc(C(N)=O)c2)c1 (stereo not shown) (as salt: methanesulfonate) [QAS 5] ; melting point = 63.5 to 65.2 °C

The reported value for CCCCCCCCCC[N+](C)(C)C1COC2C1OCC2[N+](C)(C)CCCCCCCCCC (stereo not shown) (as salt: methanesulfonate) [QAS 10] in terms of melting point is 191 °C (dec.)

melting point measured on CCCCCC[N+](C)(C)C1COC2C1OCC2[N+](C)(C)CCCCCC (stereo not shown) (as salt: methanesulfonate) [QAS 8] = 222.8 to 224 °C

The molecule listed as Cn1cc[n+](C2COC3C2OCC3[n+]2ccn(C)c2)c1 (stereo not shown) (as salt: methanesulfonate) [QAS 6] shows melting point equal to 90.5 to 93.7 °C
